- studyTarget: recombinant cynomolgus BCMA Fc(kih) (cynomolgus, UniProt A0A2K5UD97 4-51)
- Sequence (A0A2K5UD97 entry or part of it): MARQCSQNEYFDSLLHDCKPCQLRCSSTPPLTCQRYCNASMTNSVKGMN
- experimentalProtocol: SPR (Biacore T200), IgG captured via anti-human Fab, BCMA Fc(kih) as analyte, 1:1 Langmuir fit
attributeMeasured: koff (s⁻¹)
Answers are plain numbers, in s⁻¹.

Consider the reported koff for these binders:
| binder | koff [s⁻¹] |
| --- | --- |
| Mab 22 IgG (antibody, V domains shown, also called antibody 22; clone 22) VH: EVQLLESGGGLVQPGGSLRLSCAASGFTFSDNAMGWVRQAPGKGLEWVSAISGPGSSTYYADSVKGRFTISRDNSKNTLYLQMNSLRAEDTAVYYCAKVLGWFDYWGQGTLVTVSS VL: EIVLTQSPGTLSLSPGERATLSCRASQSVSSYYLAWYQQKPGQAPRLLISGAGSRATGIPDRFSGSGSGTDFTLTISRLEPEDFAVYYCQQYGYPPDFTFGQGTKVEIK | 0.000442 |
| Mab 21 IgG (antibody, V domains shown, also called antibody 21) VH: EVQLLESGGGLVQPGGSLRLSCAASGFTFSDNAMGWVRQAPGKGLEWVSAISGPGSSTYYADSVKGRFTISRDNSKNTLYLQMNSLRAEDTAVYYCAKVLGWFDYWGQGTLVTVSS VL: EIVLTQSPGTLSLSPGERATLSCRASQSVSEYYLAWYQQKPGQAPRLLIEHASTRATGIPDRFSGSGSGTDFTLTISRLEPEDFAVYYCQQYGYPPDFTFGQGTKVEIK | 0.000235 |

# next binder below
# input binder: Mab 27 IgG (antibody, V domains shown) VH: EVQLLESGGGLVQPGGSLRLSCAASGFTFSSAPMGWVRQAPGKGLEWVSAISYIGHTYYADSVKGRFTISRDNSKNTLYLQMNSLRAEDTAVYYCAKVLGWFDYWGQGTLVTVSS VL: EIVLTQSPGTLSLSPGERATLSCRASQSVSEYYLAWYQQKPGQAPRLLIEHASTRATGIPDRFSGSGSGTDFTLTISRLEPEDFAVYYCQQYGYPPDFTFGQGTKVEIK ; wanted: its koff
0.000455
